Experiment: ATG_TGFb_CIS: Attagene CIS-FACTORIAL HepG2 Assay for human Transforming Growth Factor (TGF) (AID 2282967)
Settings: HepG2 Attagene CIS TGFb reporter, mRNA transcription; actives raise or lower the signal
Active and inactive are the calls of the source. How the source made its calls: active means hit-call score of the fitted dose curve at least 0.9, where 1 is the maximum; inactive means score below 0.9.
// one of True = active, False = inactive, no free text

Nc1ncnc2nc[nH]c12 :: False
CCCCC(C=O)CC (stereo not given) :: False
CCCCCCOc1ccc(N)cc1 :: False

Per the assay record, what outcome was assigned to O=c1c(O)c(-c2ccc(O)cc2O)oc2cc(O)cc(O)c12 ?
False

Per the assay record, what outcome was assigned to COc1nccnc1CC(C)C ?
False

Per the assay record, what outcome was assigned to CCCCC1C(=O)N(c2ccccc2)N(c2ccccc2)C1=O ?
False

Per the assay record, what outcome was assigned to CCCCC1CCC(=O)O1 (stereo not given) ?
False

====

Experiment: ATG_TGFb_CIS: Attagene CIS-FACTORIAL HepG2 Assay for human Transforming Growth Factor (TGF) (AID 2282967)
Details: HepG2 Attagene CIS TGFb reporter, mRNA transcription; actives raise or lower the signal
The source made the active and inactive calls. The calls were made as follows: active = hit-call score of the fitted dose curve at least 0.9, where 1 is the maximum; inactive = score below 0.9.
// one of 1 (yes) = active, 0 (no) = inactive, no free text

Use the examples below as a reference point.
O=C(OCCc1ccccc1)c1ccccc1 :: 0 (no)
C=C(C)OC(C)=O :: 0 (no)
CC1(C)C(=O)N(CO)C(=O)N1CO :: 0 (no)

Per the assay record, what outcome was assigned to CCc1cccc(C)c1N(C(=O)CS(=O)(=O)O)C(C)COC (configuration not stated) ?
0 (no)

Per the assay record, what outcome was assigned to CC1=C(O)C(=O)C(C)O1 (configuration not stated) ?
0 (no)

Per the assay record, what outcome was assigned to CC(C)(O)Cc1ccccc1 ?
0 (no)

Per the assay record, what outcome was assigned to CCCCC(CC)COC(=O)/C=C/c1ccc(OC)cc1 (configuration not stated) ?
0 (no)

Per the assay record, what outcome was assigned to CC(c1cc(C(C)(C)C)cc(C(C)(C)C)c1O)c1cc(C(C)(C)C)cc(C(C)(C)C)c1O ?
0 (no)

====

Assay: ATG_M_32_TRANS: Attagene TRANS-FACTORIAL HepG2 Assay for M32 Transcription Factor (Internal Marker) (AID 2282984);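 further: transcript level of a background control reporter unit measured by RT-PCR and capillary electrophoresis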
Conditions: HepG2 Attagene TRANS M32 internal marker reporter
Inconclusive results are not listed. Active and inactive are the calls of the source. How the source made its calls: active means hit-call score of the fitted dose curve at least 0.9, where 1 is the maximum; inconclusive means response in the unintended direction; inactive means score below 0.9.
metric.name: outcome

Example results:
CCc1cccc(C)c1N(C(=O)CS(=O)(=O)O)C(C)COC (stereo unspecified) :: inactive
CCCCCCOc1ccc(N)cc1 :: inactive
Cc1ccc(C)c(OCCCC(C)(C)C(=O)O)c1 :: inactive
CCCCCCCCC(CO)CCCCCC (stereo unspecified) :: inactive
N#Cc1ccc(C2CCCc3cncn32)cc1 (stereo unspecified) :: inactive
Nc1ccc(Cl)c(N)c1 :: inactive
CC(CCC(=O)O)(c1ccc(O)cc1)c1ccc(O)cc1 :: inactive
CCOC(=O)C1=NOC(c2ccccc2)(c2ccccc2)C1 :: inactive

What measured outcome goes with COC(OC)(C(=O)c1ccccc1)c1ccccc1 ?
inactive

What measured outcome goes with CCCCCCCCCCCCCC(=O)OC(C)C ?
inactive

What measured outcome goes with N=C1C=CC(=C(c2ccc(N)cc2)c2ccc(N)cc2)C=C1 ?
inactive

What measured outcome goes with C=Cc1cccc(C)c1 ?
inactive

What measured outcome goes with C1CNCCN1 ?
inactive

What measured outcome goes with CCCCC(C=O)CC (stereo unspecified) ?
inactive

What measured outcome goes with CC1=NN(c2ccc(S(=O)(=O)O)cc2)C(=O)C1N=Nc1ccccc1 (stereo unspecified) ?
inactive

What measured outcome goes with Clc1cccnc1 ?
inactive

What measured outcome goes with Oc1ccccc1Cc1ccccc1O ?
inactive

What measured outcome goes with CCOc1ccc(NC(N)=O)cc1 ?
inactive

What measured outcome goes with CCCCCCCCCC(C)=O ?
inactive

What measured outcome goes with CC(C)CCCCCOC(=O)CS ?
inactive

====

Read-out: E-selectin (Homo sapiens) (UniProt P16581)
Sequence (P16581 whole entry, looked up): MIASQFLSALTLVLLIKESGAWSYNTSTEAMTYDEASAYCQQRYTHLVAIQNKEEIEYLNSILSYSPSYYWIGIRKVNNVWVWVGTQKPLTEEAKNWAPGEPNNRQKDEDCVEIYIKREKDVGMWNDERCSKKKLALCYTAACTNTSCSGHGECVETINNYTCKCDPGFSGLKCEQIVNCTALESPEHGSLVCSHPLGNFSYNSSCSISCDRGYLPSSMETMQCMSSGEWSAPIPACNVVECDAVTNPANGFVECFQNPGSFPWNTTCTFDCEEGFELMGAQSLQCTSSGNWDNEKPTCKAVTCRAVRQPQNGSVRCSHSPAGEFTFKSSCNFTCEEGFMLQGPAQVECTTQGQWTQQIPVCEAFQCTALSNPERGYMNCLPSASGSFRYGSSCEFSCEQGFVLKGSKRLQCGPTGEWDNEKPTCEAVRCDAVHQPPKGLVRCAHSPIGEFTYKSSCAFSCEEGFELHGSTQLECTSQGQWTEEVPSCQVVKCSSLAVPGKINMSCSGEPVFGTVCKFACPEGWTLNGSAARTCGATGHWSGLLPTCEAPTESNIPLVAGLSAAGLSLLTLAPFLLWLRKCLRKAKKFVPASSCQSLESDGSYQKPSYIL
Assay: BSK_3C_Eselectin: BioMAP Diversity Plus: 3C Assay for Eselectin Biomarker Activity (AID 2283015);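 further: cell surface E-selectin protein quantified by ELISA 24 h after dosing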
Conditions: primary human endothelial cells (HUVEC); actives raise or lower the signal
The source made the active and inactive calls. Rule for the calls: active = hit-call score of the fitted dose curve at least 0.9, where 1 is the maximum; inactive = score below 0.9.
// one of active, inactive, no free text

Use the examples below as a reference point.
CC(C)CCCCCOC(=O)CS :: inactive
CC(C)[N+](C)(CCOC(=O)C1c2ccccc2Oc2ccccc21)C(C)C :: inactive
Nc1nc(N)nc(-c2ccccc2)n1 :: inactive
Cc1ccc([N+](=O)[O-])cc1N :: inactive

Per the assay record, what outcome was assigned to COC(OC)(C(=O)c1ccccc1)c1ccccc1 ?
inactive

====

Biological target: Estrogen receptor (Homo sapiens) (UniProt P03372)
Sequence (P03372 whole entry, looked up): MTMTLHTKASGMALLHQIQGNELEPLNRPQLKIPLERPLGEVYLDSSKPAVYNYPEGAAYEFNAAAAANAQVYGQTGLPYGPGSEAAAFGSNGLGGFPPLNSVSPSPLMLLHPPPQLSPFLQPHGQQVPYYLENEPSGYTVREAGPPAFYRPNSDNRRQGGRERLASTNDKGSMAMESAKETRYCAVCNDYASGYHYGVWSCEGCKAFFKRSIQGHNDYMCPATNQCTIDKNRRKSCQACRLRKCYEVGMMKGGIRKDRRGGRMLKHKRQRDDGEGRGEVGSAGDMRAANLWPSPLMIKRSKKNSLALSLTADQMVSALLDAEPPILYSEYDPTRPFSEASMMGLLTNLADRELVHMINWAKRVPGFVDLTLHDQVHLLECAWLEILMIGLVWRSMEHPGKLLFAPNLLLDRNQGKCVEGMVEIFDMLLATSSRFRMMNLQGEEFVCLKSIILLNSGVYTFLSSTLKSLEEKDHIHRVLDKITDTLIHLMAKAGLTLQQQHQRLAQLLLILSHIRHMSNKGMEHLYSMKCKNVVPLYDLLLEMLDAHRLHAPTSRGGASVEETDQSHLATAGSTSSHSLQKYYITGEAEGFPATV
Assay: ATG_ERa_TRANS: Attagene TRANS-FACTORIAL HepG2 Assay for human Estrogen Receptor alpha (ERa) (AID 2282970)
Details: HepG2 Attagene TRANS ERa GAL4 reporter, mRNA
Records with an inconclusive call do not appear. The source made the active and inactive calls. The calls were made as follows: active = hit-call score of the fitted dose curve at least 0.9, where 1 is the maximum; inconclusive = response in the unintended direction; inactive = score below 0.9.
// one of active, inactive, no free text

Use the examples below as a reference point.
COc1nccnc1CC(C)C :: inactive
CCCCCCCCCCCC(C)=O :: active
CCc1cccc(CC)c1 :: inactive
CC(C)=CCl :: inactive
CC(C)C(=O)OCCc1ccccc1 :: inactive
CCOC(=O)c1ccc(C)cc1 :: inactive

Per the assay record, what outcome was assigned to CCCCCCOC(=O)CCCCC(=O)OCCCCCC ?
inactive

Per the assay record, what outcome was assigned to C=C(C)C(=O)OCCCCCCCCCCCC ?
active

====

Read-out: Interferon-gamma inducible Protein 10 (IP10), CXCL10 (gene 3627)
Test: BSK_BE3C_IP10: BioMAP Diversity Plus: BE3C Assay for Interferon-gamma inducible Protein 10 (IP10) Biomarker Activity (AID 2283034)
Conditions: primary human bronchial epithelial cells; actives raise or lower the signal
Active and inactive are the calls of the source. How the source made its calls: active means hit-call score of the fitted dose curve at least 0.9, where 1 is the maximum; inactive means score below 0.9.
// one of YES for active, NO for inactive, no free text

Use the examples below as a reference point.
CC(Cl)COP(=O)(OCC(C)Cl)OCC(C)Cl (configuration not stated) :: NO
CC(CCC(=O)O)(c1ccc(O)cc1)c1ccc(O)cc1 :: NO
c1ccc2sc(SSN3CCOCC3)nc2c1 :: YES
CC/C=C\C/C=C\C/C=C\CCCCCCCC(=O)OC :: YES
CC=C(C)C(C)=O :: YES
Cc1c(O)cccc1O :: NO

Per the assay record, what outcome was assigned to COc1ccc(C(=O)/C(Br)=C\C(=O)O)cc1 ?
YES

====

Assay: BSK_3C_Vis: BioMAP Diversity Plus: 3C Assay for Morphology Visualization (AID 2283025);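 further: fitted both ways so gain or loss versus DMSO counts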
Conditions: primary human endothelial cells (HUVEC)
Activity calls are given as the source filed them. The calls were made as follows: active = hit-call score of the fitted dose curve at least 0.9, where 1 is the maximum; inactive = score below 0.9.
// one of 1 for active, 0 for inactive, no free text

C=CC(=O)NCOCCCC :: 0
Nc1cccc(N)n1 :: 0
CC(C)c1cccc(C(C)C)c1N :: 1
CC1=CC=C(C(C)C)CC1 :: 0
CC/C=C\CCOC(=O)c1ccccc1O :: 1

Now examine the next entry.
Per the assay record, what outcome was assigned to CCC1(C)C(=O)N(Cl)C(=O)N1Cl (stereo unspecified) ?
0

====

Read-out: Intercellular Adhesion Molecule 1 (ICAM1), ICAM1 (gene 3383)
Assay: BSK_hDFCGF_ICAM1: BioMAP Diversity Plus: hDFCGF Assay for Intercellular Adhesion Molecule 1 (ICAM1) Biomarker Activity (AID 2284287)
Settings: primary human foreskin fibroblasts
Activity calls are given as the source filed them. The calls were made as follows: active = hit-call score of the fitted dose curve at least 0.9, where 1 is the maximum; inactive = score below 0.9.
metric.name: outcome

Example results:
C[N+](C)(C)CCCNS(=O)(=O)C(F)(F)C(F)(F)C(F)(F)C(F)(F)C(F)(F)C(F)(F)C(F)(F)C(F)(F)F :: inactive
Nc1nc(N)nc(-c2ccccc2)n1 :: inactive
CCCCCCCCCCCC(=O)N(C)CC(=O)O :: inactive
Oc1ccccc1Cc1ccccc1O :: inactive

// next item, outcome requested
What measured outcome goes with CC(CCC(=O)O)(c1ccc(O)cc1)c1ccc(O)cc1 ?
inactive

====

Target: Bile acid receptor (Homo sapiens) (UniProt Q96RI1)
Sequence (Q96RI1 whole entry, looked up): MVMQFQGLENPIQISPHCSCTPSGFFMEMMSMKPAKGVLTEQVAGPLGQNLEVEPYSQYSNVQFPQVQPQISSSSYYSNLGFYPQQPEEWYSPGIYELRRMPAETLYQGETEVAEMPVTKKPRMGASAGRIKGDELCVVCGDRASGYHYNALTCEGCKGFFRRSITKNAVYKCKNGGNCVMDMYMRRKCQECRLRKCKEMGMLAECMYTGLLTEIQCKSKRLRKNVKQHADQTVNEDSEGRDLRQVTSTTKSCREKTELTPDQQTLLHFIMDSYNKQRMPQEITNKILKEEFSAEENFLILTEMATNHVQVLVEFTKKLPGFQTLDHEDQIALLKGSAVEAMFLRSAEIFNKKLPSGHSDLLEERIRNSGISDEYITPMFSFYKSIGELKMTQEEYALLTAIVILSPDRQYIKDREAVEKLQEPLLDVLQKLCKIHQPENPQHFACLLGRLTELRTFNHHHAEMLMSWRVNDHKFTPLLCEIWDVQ
Test: ATG_FXR_TRANS: Attagene TRANS-FACTORIAL HepG2 Assay for Farnesoid X Receptor (FXR) (AID 2282979);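 further: hits raise reporter mRNA above DMSO so AC50 marks FXR activation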
Conditions: HepG2 Attagene TRANS FXR-GAL4 reporter transcription
Results filed as inconclusive are left out. Activity calls are given as the source filed them. How the source made its calls: active means hit-call score of the fitted dose curve at least 0.9, where 1 is the maximum; inconclusive means response in the unintended direction; inactive means score below 0.9.
// one of True for active, False for inactive, no free text

CCCCc1ccc(Cl)cc1 :: False
CC1(C)C(=O)N(CO)C(=O)N1CO :: False
CC(C)[N+](C)(CCOC(=O)C1c2ccccc2Oc2ccccc21)C(C)C :: False
CCCCCC(=O)OCC :: False
CCCCCCCCCCCC(C)=O :: False
CC=CC(=O)OCC(C)C :: False

Per the assay record, what outcome was assigned to O=C(Cl)c1c(Cl)c(Cl)c(C(=O)Cl)c(Cl)c1Cl ?
False

Per the assay record, what outcome was assigned to CC(C)c1ccc2ncccc2c1 ?
False

Per the assay record, what outcome was assigned to CC(C)=CCl ?
False

Per the assay record, what outcome was assigned to c1ccc(-c2nc3ccccc3[nH]2)cc1 ?
False

Per the assay record, what outcome was assigned to CCCCCCCC(=O)OCC ?
False

Per the assay record, what outcome was assigned to CC(c1cc(C(C)(C)C)cc(C(C)(C)C)c1O)c1cc(C(C)(C)C)cc(C(C)(C)C)c1O ?
True

Per the assay record, what outcome was assigned to O=C(O)C(F)(F)C(F)(F)C(F)(F)C(F)(F)C(=O)O ?
False

Per the assay record, what outcome was assigned to CCCCCCCCCCCCCc1ccccc1 ?
False
